Parameter IC50, tested on VIM-2 (Escherichia coli, UniProt Q5U7L7), listed per item.
endpoint-label: IC50 (µM)

| compound | units | reading-qualifier | test-value |
| --- | --- | --- | --- |
| O=C(O)c1ccccn1 [compound 1, 2-picolinic acid] | µM | = | 32.2 |
| O=C(O)c1cccc(C(O)P(=O)(O)O)n1 (centres unmarked) [3b] | µM | = | 1.9 |
| O=P(O)(O)Cc1ccccn1 [compound 4, (pyridin-2-ylmethyl)phosphonic acid] | µM | = | 171 |
| Cc1cccc(C(=O)O)n1 [compound 2, 6-methylpicolinic acid] | µM | > | 100 |
| O=C(O)c1cccc(C(N(Cc2ccccc2)C(=O)c2cccs2)P(=O)(O)O)n1 (centres unmarked) [3c] | µM | = | 0.464 |
